Target: GORASP2, Q9H8Y8
Assay: holdup assay
Design: key: below the threshold = too weak to quantify, mostly under pKd 3.1 to 4
Conditions: plain residues with an end cap or a label only (N-terminal biotin on a linker: ahx)
property-label: pKd

binder: EKQAKGDTEF [CACYBP, Q9HB71]
pKd: below the threshold
--
binder: HTHSYIETHV [CNKSR2, Q8WXI2]
pKd: below the threshold
--
binder: QDEKVKESYV [ABCA1, O95477]
pKd: 3.75
--
binder: TESNLQTSSC [CGN, Q9P2M7]
pKd: below the threshold

# pKd of TQKFRASTAL [FRMPD1, Q5SYB0] = below the threshold
